Source of measurements: the supplement of paper PMC10567573

- PROTOCOL SUMMARY: protein stability index of a GFP-peptide fusion (GPS, HEK-293T) (PSI 1-6); higher = more stable;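 further: 24-mer peptide tiles fused after GFP, lentivirally expressed, FACS-sorted into six equal bins by GFP/DsRed ratio, decoded by Illumina sequencing, PSI is the read-weighted mean bin number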
- ASSAY SETUP: treatment: MLN4924 1 uM, 8 h; c terminus: a fixed tail appended
# Lookup of reported protein stability index keyed by entry
Give the figure only, with no unit attached.

# count of solved cases: 5
MSVILSMDNNRNLDLDSIIDEVRT [KRT71]; 2.52
NQNRAYVTLAAHFLGLGAPNCLSM [ZBED1]; 3.08
PAHKNLNKQAYDLAKALLKRTAQA [PDS5B]; 2.51
MVRRLKMVVKTFMDMDQDSEEEKE [PDS5B]; 3.13
PSVPPTIKEEENSEEELAAATTSK [MYBL2]; 5.56

Exercise: Look up protein stability index for this sequence: ELQLEAANETYENNFDNLDFDLDL [ATF6]
Solution: 5.08

Exercise: Look up protein stability index for this sequence: IPVFRLARRRKKILFYCHFPDLLL [ALG2]
Solution: 2.44

Exercise: Look up protein stability index for this sequence: LSGVEEELQRTKQEVLSLRRENST [SASS6]
Solution: 5

Exercise: Look up protein stability index for this sequence: SREKTACAINKVGVSFSTVENELM [FAM98B]
Solution: 3.63

Exercise: Look up protein stability index for this sequence: SYTIITPLFNPMIYSLRNKEFKSA [OR10K2]
Solution: 2.38

Exercise: Look up protein stability index for this sequence: HECVNMEESYYCRCHRGYTLDPNG [MATN2]
Solution: 3.36

Exercise: Look up protein stability index for this sequence: APLIQPCHSESGKSRLVQLPPVAV [PCMTD2]
Solution: 3.29

Exercise: Look up protein stability index for this sequence: IANPNSLNHVKSMWYPEIKHFCPR [RHOBTB1]
Solution: 2.4

---

- PROTOCOL SUMMARY: protein stability index of a GFP-peptide fusion (GPS, HEK-293T) (PSI 1-6); higher = more stable
- ASSAY SETUP: treatment: DMSO; c terminus: a fixed tail appended
# binarize protein stability index: threshold 3 inclusive, high side 1.0, low side 0.0

IIVTIMASQSLGSPMYFFLASLSF [OR4A15]; 1.0
RIIYQNKCMRNGPNALIASLALGD [EDNRA]; 0.0
TKCEYMLNSMPKRLCLVCGDIASG [ESRRG]; 0.0
EDQYEENSHLTSVPHWINSNTLGF [ETS2]; 1.0
QKNGGGAYLVPYLVLLIIIGIPLF [SLC6A17]; 0.0
LYPAVSAVWGQCQVRIRYLGERRA [SPSB2]; 0.0
LKAHAEEKPPSGTKEKKHQCDHCE [PLAGL1]; 1.0
RTKVVKPYSTVDNPVYYGPSDFFI [EFHC1]; 0.0
STNEEEKEENEAESDVKHRTRDYK [PRIM1]; 1.0
RLDIVKYLVENNANISIANKYDNT [FEM1B]; 0.0

Exercise: Dear colleague, could you confirm whether AATLLLALLSCCLTVVSFYQVAAL [TNFSF13B] has protein stability index at or above 3?
Solution: 1.0

Exercise: Dear colleague, could you confirm whether PTMPQPIEKVSVSTQTKKLSASSP [ZMYND11] has protein stability index at or above 3?
Solution: 1.0

Exercise: Dear colleague, could you confirm whether QGIFVEKYDPTIEDSYRKQVEVDA [RAP1B] has protein stability index at or above 3?
Solution: 1.0

Exercise: Dear colleague, could you confirm whether SKNGNGLKNTPRFKRRRVRRRRME [PCMTD2] has protein stability index at or above 3?
Solution: 1.0

Exercise: Dear colleague, could you confirm whether MVANILNNEAFMNQEITKAFHVRR [RHOBTB2] has protein stability index at or above 3?
Solution: 0.0

Exercise: Dear colleague, could you confirm whether KRKTFNKVLGHVNNILISAVLPTA [GDAP1] has protein stability index at or above 3?
Solution: 0.0

Exercise: Dear colleague, could you confirm whether HLEGYHGTAGDSMSYHSGSVFSAR [TNXB] has protein stability index at or above 3?
Solution: 1.0

Exercise: Dear colleague, could you confirm whether KDARQWFAELSVDMEKILEIIRVI [CCNC] has protein stability index at or above 3?
Solution: 0.0

Exercise: Dear colleague, could you confirm whether DHMREAGDVCYADVYRDGTGVVEF [SRSF1] has protein stability index at or above 3?
Solution: 1.0

Exercise: Dear colleague, could you confirm whether SFDYEQFHELQMQVTASDSGDPPL [PCDHGA10] has protein stability index at or above 3?
Solution: 1.0
